Measured values drawn from the array DNA melting data of Ke et al. for this set.

Assay: melting temperature; melt of duplexes
Conditions: sodium 0.0675 M; strand 1 µM
attributeMeasured: Tm (°C)
Just the number in °C, nothing appended.

Check out these entries, answers already filled in.
CGACGTGCGTAATGTGCTG+CAGCACATGTAGCACGTCG ((((((((...((((((((+))))))))...)))))))) = 58.1
CGACGTGCTGCATGTGCTG+CAGCACATTAGGCACGTCG ((((((((...((((((((+))))))))...)))))))) = 50.4

-- ask Given CGACGTGCAACATGTGCTG+CAGCACATGACGCACGTCG ((((((((..(((((((((+)))))))))..)))))))) , state its recorded Tm.
-- reply 50.9

-- ask May I ask what Tm has been recorded for CGACGTGCTAAATGTGCTG+CAGCACATCGGGCACGTCG ((((((((...((((((((+))))))))...)))))))) ?
-- reply 49.7
